- System: TYKNU
- Experimental Details: fractional viability relative to vehicle; TYKNU is a high-grade serous ovarian cancer line; higher = less growth inhibition
- Condition Details: 2uM; 72 h; genotype: OPA1 knockout (sgOPA1 #2)
Counter-ions that a name gives are not always drawn. The full ranking holds about 2,000 compounds; the median of “fractional viability relative to vehicle” is about 0.92, and the lowest 2% start at about 0.11. Many of the other results were omitted from the sample, so the lowest values are more common in it than they were.
# maps each entry to its fractional viability
Lab note: jot the number down without any unit.

Some solved entries appear below for comparison.
Molecule: CCN1CCN(C(=O)Cc2ccc(Nc3ncc(F)c(Nc4ccc(C(=O)Nc5ccccc5Cl)cc4)n3)cc2)CC1 [Aurora A Inhibitor I]
fractional viability: 1.03
--
Molecule: Cn1c(CCCC(=O)O)nc2cc(N(CCCl)CCCl)ccc21 [Bendamustine HCl]
fractional viability: 1.1
--
Molecule: C[C@]12N[C@H](Cc3ccccc31)c1ccccc12 [MK-801 (Dizocilpine)]
fractional viability: 1.04
--
Molecule: COc1cc(OC)c(OC)cc1C=O [Asaraldehyde]
fractional viability: 1.16

Problem: # lookup: fractional viability of O=C(O[C@H]1C[N+]2(CCCOc3ccccc3)CCC1CC2)C(O)(c1cccs1)c1cccs1 [Aclidinium Bromide]
Solution: 0.952

Reference for the values: the supplement of paper PMC5919970
